Experiment: Bulk density, tapped density and Carr index
Format: physicochemical
Conditions: spray dried amorphous ipatasertib monohydrochloride powder; monohydrochloride
Counter-ions that a name gives are not always drawn.
measurement-type: Bulk density (gcm^−3)
The reply should be a number in gcm^−3, with the unit left off.

Consider the worked cases shown below.
Q: Param item = CC(C)NC[C@@H](C(=O)N1CCN(c2ncnc3c2[C@H](C)C[C@H]3O)CC1)c1ccc(Cl)cc1 [Composition 141210425, ipatasertib monohydrochloride] ; retrieve measured Bulk density.
A: 0.39

Q: Param item = CC(C)NC[C@@H](C(=O)N1CCN(c2ncnc3c2[C@H](C)C[C@H]3O)CC1)c1ccc(Cl)cc1 [Composition 141210421, ipatasertib monohydrochloride] ; retrieve measured Bulk density.
A: 0.38

Q: Param item = CC(C)NC[C@@H](C(=O)N1CCN(c2ncnc3c2[C@H](C)C[C@H]3O)CC1)c1ccc(Cl)cc1 [Composition 140110406, ipatasertib monohydrochloride] ; retrieve measured Bulk density.
A: 0.41

Next:
Q: Param item = CC(C)NC[C@@H](C(=O)N1CCN(c2ncnc3c2[C@H](C)C[C@H]3O)CC1)c1ccc(Cl)cc1 [Composition 130810454, ipatasertib monohydrochloride] ; retrieve measured Bulk density.
A: 0.47

Q: Param item = CC(C)NC[C@@H](C(=O)N1CCN(c2ncnc3c2[C@H](C)C[C@H]3O)CC1)c1ccc(Cl)cc1 [Composition 140210414, ipatasertib monohydrochloride] ; retrieve measured Bulk density.
A: 0.48

Q: Param item = CC(C)NC[C@@H](C(=O)N1CCN(c2ncnc3c2[C@H](C)C[C@H]3O)CC1)c1ccc(Cl)cc1 [Composition 130810453, ipatasertib monohydrochloride] ; retrieve measured Bulk density.
A: 0.30

Q: Param item = CC(C)NC[C@@H](C(=O)N1CCN(c2ncnc3c2[C@H](C)C[C@H]3O)CC1)c1ccc(Cl)cc1 [Composition 140110405, ipatasertib monohydrochloride] ; retrieve measured Bulk density.
A: 0.28

Q: Param item = CC(C)NC[C@@H](C(=O)N1CCN(c2ncnc3c2[C@H](C)C[C@H]3O)CC1)c1ccc(Cl)cc1 [Composition 140110401, ipatasertib monohydrochloride] ; retrieve measured Bulk density.
A: 0.47

* * *

Below: a set of entries, each annotated with reported Particle size d90.
Assay: Particle size distribution (d10, d50, d90) by laser diffraction
Format: physicochemical
Details: spray dried amorphous ipatasertib monohydrochloride powder
Where a name gives a salt, the structure may show the parent alone.
The reply should be a number in μm, with the unit left off.

Consider the worked cases shown below.
Q: Param item = CC(C)NC[C@@H](C(=O)N1CCN(c2ncnc3c2[C@H](C)C[C@H]3O)CC1)c1ccc(Cl)cc1 [Composition 140110401, ipatasertib monohydrochloride] ; retrieve measured Particle size d90.
A: 64

Q: Param item = CC(C)NC[C@@H](C(=O)N1CCN(c2ncnc3c2[C@H](C)C[C@H]3O)CC1)c1ccc(Cl)cc1 [Composition 141210421, ipatasertib monohydrochloride] ; retrieve measured Particle size d90.
A: 56

Next:
Q: Param item = CC(C)NC[C@@H](C(=O)N1CCN(c2ncnc3c2[C@H](C)C[C@H]3O)CC1)c1ccc(Cl)cc1 [Composition 140110405, ipatasertib monohydrochloride] ; retrieve measured Particle size d90.
A: 57

* * *

Below: a set of entries, each annotated with reported Particle size d50.
Assay: Particle size distribution (d10, d50, d90) by laser diffraction
Assay type: physicochemical
Settings: spray dried amorphous ipatasertib monohydrochloride powder
Where a name gives a salt, the structure may show the parent alone.
The reply should be a number in μm, with the unit left off.

Consider the worked cases shown below.
Q: Param item = CC(C)NC[C@@H](C(=O)N1CCN(c2ncnc3c2[C@H](C)C[C@H]3O)CC1)c1ccc(Cl)cc1 [Composition 140110405, ipatasertib monohydrochloride] ; retrieve measured Particle size d50.
A: 26

Q: Param item = CC(C)NC[C@@H](C(=O)N1CCN(c2ncnc3c2[C@H](C)C[C@H]3O)CC1)c1ccc(Cl)cc1 [Composition 140910420, ipatasertib monohydrochloride] ; retrieve measured Particle size d50.
A: 24

Q: Param item = CC(C)NC[C@@H](C(=O)N1CCN(c2ncnc3c2[C@H](C)C[C@H]3O)CC1)c1ccc(Cl)cc1 [6B′, ipatasertib monohydrochloride] ; retrieve measured Particle size d50.
A: 5.2

Q: Param item = CC(C)NC[C@@H](C(=O)N1CCN(c2ncnc3c2[C@H](C)C[C@H]3O)CC1)c1ccc(Cl)cc1 [Composition 140110406, ipatasertib monohydrochloride] ; retrieve measured Particle size d50.
A: 26

Q: Param item = CC(C)NC[C@@H](C(=O)N1CCN(c2ncnc3c2[C@H](C)C[C@H]3O)CC1)c1ccc(Cl)cc1 [Composition 141210426, ipatasertib monohydrochloride] ; retrieve measured Particle size d50.
A: 21

Q: Param item = CC(C)NC[C@@H](C(=O)N1CCN(c2ncnc3c2[C@H](C)C[C@H]3O)CC1)c1ccc(Cl)cc1 [Composition 140110411, ipatasertib monohydrochloride] ; retrieve measured Particle size d50.
A: 27

Q: Param item = CC(C)NC[C@@H](C(=O)N1CCN(c2ncnc3c2[C@H](C)C[C@H]3O)CC1)c1ccc(Cl)cc1 [Composition 140910419, ipatasertib monohydrochloride] ; retrieve measured Particle size d50.
A: 33

Q: Param item = CC(C)NC[C@@H](C(=O)N1CCN(c2ncnc3c2[C@H](C)C[C@H]3O)CC1)c1ccc(Cl)cc1 [Composition 141210425, ipatasertib monohydrochloride] ; retrieve measured Particle size d50.
A: 39

Next:
Q: Param item = CC(C)NC[C@@H](C(=O)N1CCN(c2ncnc3c2[C@H](C)C[C@H]3O)CC1)c1ccc(Cl)cc1 [Composition 130710452, ipatasertib monohydrochloride] ; retrieve measured Particle size d50.
A: 21

Q: Param item = CC(C)NC[C@@H](C(=O)N1CCN(c2ncnc3c2[C@H](C)C[C@H]3O)CC1)c1ccc(Cl)cc1 [Composition 130810453, ipatasertib monohydrochloride] ; retrieve measured Particle size d50.
A: 20

Q: Param item = CC(C)NC[C@@H](C(=O)N1CCN(c2ncnc3c2[C@H](C)C[C@H]3O)CC1)c1ccc(Cl)cc1 [Composition 140110403, ipatasertib monohydrochloride] ; retrieve measured Particle size d50.
A: 27
